# experimental_target: D3 dopamine receptor (Homo sapiens)
# Sequence (P35462 whole entry): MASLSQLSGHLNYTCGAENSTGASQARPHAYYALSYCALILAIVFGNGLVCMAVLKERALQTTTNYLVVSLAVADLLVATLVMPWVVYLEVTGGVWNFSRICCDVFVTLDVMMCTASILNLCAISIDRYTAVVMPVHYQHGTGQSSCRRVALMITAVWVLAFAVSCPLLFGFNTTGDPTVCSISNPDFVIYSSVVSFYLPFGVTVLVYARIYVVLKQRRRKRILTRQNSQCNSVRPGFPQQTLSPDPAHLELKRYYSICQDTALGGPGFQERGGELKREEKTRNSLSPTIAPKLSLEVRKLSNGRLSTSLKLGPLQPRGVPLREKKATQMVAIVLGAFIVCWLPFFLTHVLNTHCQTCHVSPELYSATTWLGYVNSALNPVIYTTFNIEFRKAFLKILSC
# protocol_description: In vitro binding (membrane preparation), human recombinant receptors, D3
pKi: −log10 of the molar value.
value_kind: pKi

>>> observed_result("CCCN1C[C@@H](c2ccc(N)nc2)OC[C@@H]1C")
6.67

====

# experimental_target: UniProt:P35462
# protocol_description: Inhibition via dopamine D3 receptors of forskolin-stimulated adenylate cyclase activity (cAMP, hD3CHO cells)
value_kind: EC50 (nM)

>>> observed_result("CCCN1CCO[C@H](c2cccc(O)c2)C1.Cl [Example 8, hydrochloride]")
7.6

====

# experimental_target: D2 dopamine receptor (Homo sapiens, UniProt P14416)
# Sequence (P14416 whole entry): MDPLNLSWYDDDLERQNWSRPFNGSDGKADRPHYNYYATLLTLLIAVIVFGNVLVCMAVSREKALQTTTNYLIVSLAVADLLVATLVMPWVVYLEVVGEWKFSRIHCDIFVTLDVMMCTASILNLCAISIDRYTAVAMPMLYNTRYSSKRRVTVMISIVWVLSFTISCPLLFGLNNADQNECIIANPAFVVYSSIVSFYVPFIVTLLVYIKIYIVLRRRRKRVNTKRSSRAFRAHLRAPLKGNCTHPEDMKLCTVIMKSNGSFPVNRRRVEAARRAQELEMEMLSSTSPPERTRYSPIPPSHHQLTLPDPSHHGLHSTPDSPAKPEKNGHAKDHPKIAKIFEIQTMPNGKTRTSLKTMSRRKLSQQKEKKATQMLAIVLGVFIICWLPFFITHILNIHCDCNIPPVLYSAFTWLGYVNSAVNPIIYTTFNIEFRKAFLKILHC
# protocol_description: In vitro binding (membrane preparation), human recombinant receptors, D2
value_kind: IC50

>>> observed_result("CCCN1C[C@@H](c2ccc(N)nc2)OC[C@@H]1C")
"> 10 µM"
